Overview of recorded BTK degradation Amax for various compounds
Molecular target: BTK (Homo sapiens, UniProt Q06187)
Construct: the BTK open reading frame (ORF) was first shuttled from a pcDNA-DEST40-BTK vector; expressed in transfected cells; host or cells: HEK293A (Invitrogen R70507), lentiviral transduction, blasticidin selection
Sequence (Q06187 whole entry): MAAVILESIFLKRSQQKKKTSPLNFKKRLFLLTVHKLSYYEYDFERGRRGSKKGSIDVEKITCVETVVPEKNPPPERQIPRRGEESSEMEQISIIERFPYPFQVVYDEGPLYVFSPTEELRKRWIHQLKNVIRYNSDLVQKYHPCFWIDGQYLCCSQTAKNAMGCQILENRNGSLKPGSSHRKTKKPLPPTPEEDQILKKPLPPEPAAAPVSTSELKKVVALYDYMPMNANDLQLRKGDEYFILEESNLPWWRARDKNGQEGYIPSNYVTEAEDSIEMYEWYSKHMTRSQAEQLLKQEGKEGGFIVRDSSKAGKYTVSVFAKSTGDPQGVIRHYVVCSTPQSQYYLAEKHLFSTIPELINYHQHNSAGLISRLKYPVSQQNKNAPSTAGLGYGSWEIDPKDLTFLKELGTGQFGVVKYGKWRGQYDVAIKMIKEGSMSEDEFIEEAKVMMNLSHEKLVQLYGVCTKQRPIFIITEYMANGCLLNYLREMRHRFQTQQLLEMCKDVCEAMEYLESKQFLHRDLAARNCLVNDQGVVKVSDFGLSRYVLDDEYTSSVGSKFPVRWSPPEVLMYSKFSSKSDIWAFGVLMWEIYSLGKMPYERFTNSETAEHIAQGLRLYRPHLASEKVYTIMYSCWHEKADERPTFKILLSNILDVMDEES
Experiment: BTK-GFP protein abundance flow cytometry assay in HEK293A
Format: cell-based
Conditions: % protein remaining at the concentration at which maximum degradation is seen; HEK293A, 24 h
Method: Degradation of BTK, CSK, ABL2, EPHA4 and YES1 was measured in HEK293A cells (Invitrogen R70507) expressing either BTK-GFP and RFP, CSK-GFP and mCherry, GFP-ABL2 and mCherry, EPHA4-GFP and mCherry, or YES1-GFP and mCherry from a stably integrated bicistronic BTK-GFP-iresRFP, CSK-GFP-CHYSEL-mCherry, GFP-ABL2-CHYSEL-mCherry, EPHA4-GFP-CHYSEL-mCherry, or YES1-GFP-CHYSEL-mCherry construct, respectively. […]
Report as a plain number; the unit % is understood.

// below: answered compounds
// returns BTK degradation Amax for COc1cc(C(=O)N2CCC(OC3CCN(Cc4ccc(-c5cc6c(-c7cc(F)cc(NC(=O)c8ccc(C(C)(C)O)cc8F)c7C)ncnc6[nH]5)cc4)CC3)CC2)ccc1N1CCC(=O)NC1=O [Compound 24] with BTK (Homo sapiens, UniProt Q06187); value = 55.7

// returns BTK degradation Amax for COc1ccc(C(=O)N2CCOC3(CCN(Cc4ccc(-c5cc6c(-c7cc(F)cc(NC(=O)c8ccc(C(C)(C)O)cc8F)c7C)ncnc6[nH]5)cc4)CC3)C2)cc1N1CCC(=O)NC1=O [Compound 01] with BTK (Homo sapiens, UniProt Q06187); value = 98

// returns BTK degradation Amax for Cc1c(NC(=O)c2ccc(C(C)(C)O)cc2F)cc(F)cc1-c1ncnc2[nH]c(-c3ccc(CN4CCC(OC5CCN(CCn6cccc(CN7CCC(=O)NC7=O)c6=O)CC5)CC4)cc3)cc12 [Compound 33] with BTK (Homo sapiens, UniProt Q06187); value = 6.1

// returns BTK degradation Amax for Cc1c(NC(=O)c2ccc(C(C)(C)O)cc2F)cc(F)cc1-c1ncnc2[nH]c(-c3ccc(CN4CCN(CCNC(=O)COc5cccc(N6CCC(=O)NC6=O)c5)CC4)cc3)cc12 [Compound 09] with BTK (Homo sapiens, UniProt Q06187); value = 3.9

Now examine the next entry.
// returns BTK degradation Amax for Cc1ccc(N2CCC(=O)NC2=O)cc1CNC(=O)CCCCN(C)Cc1ccc(-c2cc3c(-c4cc(F)cc(NC(=O)c5ccc(C(C)(C)O)cc5F)c4C)ncnc3[nH]2)cc1 [Compound 08] with BTK (Homo sapiens, UniProt Q06187); value = 55.1

* * *

target: CRBN (Homo sapiens); assay: CRBN displacement assay Format 1 (fluorescence polarization, BodipyFL-lenalidomide probe Compound HH); type: binding
parameter: AC50 (nM)
Report as a plain number; the unit nM is understood.

// below: answered compounds
So, Cc1c(NC(=O)c2ccc(C(C)(C)O)cc2F)cc(F)cc1-c1ncnc2[nH]c(-c3ccc(CN(C)CCCCCCOc4cccc(N5CCC(=O)NC5=O)c4)cc3)cc12 [Compound 16] ? Its AC50 was 916

So, COc1ccc(C(=O)N2CCC3(CCN(C(=O)CCCCCCCN4CCN(c5cc(Nc6ncc(C(=O)Nc7c(C)cccc7Cl)s6)nc(C)n5)CC4)CC3)CC2)cc1N1CCC(=O)NC1=O [compound 06] ? Its AC50 was 162

So, Cc1c(NC(=O)c2ccc(C(C)(C)O)cc2F)cc(F)cc1-c1ncnc2[nH]c(-c3ccc(CNCCCCCCn4cc(-c5cccc(N6CCC(=O)NC6=O)c5)nn4)cc3)cc12 [Compound 19] ? Its AC50 was 104

So, O=C1CCN(Cc2cccc(CCO)c2)C(=O)N1 [ILB-7] ? Its AC50 was 61200

So, COc1cc(C(=O)N2CCC(OC3CCN(Cc4ccc(-c5cc6c(-c7cc(F)cc(NC(=O)c8ccc(C(C)(C)O)cc8F)c7C)ncnc6[nH]5)cc4)CC3)CC2)ccc1N1CCC(=O)NC1=O [Compound 24] ? Its AC50 was 5190

---
So, COc1ccc(C(=O)N2CCC(OC3CCNCC3)CC2)cc1N1CCC(=O)NC1=O [ILB-59] ? Its AC50 was 1360

* * *

Overview of recorded AC50 for various compounds
biological target: CRBN (Homo sapiens, UniProt Q96SW2); assay: CRBN displacement assay Format 1 (fluorescence polarization, BodipyFL-lenalidomide probe Compound HH); assay type: binding; settings: concentration at which 50% of reference probe Compound HH is displaced; 100 nM protein, 5 nM probe; Table 4; read-out: CRBN AC50 [μM] Format 1
Sequence (Q96SW2 whole entry): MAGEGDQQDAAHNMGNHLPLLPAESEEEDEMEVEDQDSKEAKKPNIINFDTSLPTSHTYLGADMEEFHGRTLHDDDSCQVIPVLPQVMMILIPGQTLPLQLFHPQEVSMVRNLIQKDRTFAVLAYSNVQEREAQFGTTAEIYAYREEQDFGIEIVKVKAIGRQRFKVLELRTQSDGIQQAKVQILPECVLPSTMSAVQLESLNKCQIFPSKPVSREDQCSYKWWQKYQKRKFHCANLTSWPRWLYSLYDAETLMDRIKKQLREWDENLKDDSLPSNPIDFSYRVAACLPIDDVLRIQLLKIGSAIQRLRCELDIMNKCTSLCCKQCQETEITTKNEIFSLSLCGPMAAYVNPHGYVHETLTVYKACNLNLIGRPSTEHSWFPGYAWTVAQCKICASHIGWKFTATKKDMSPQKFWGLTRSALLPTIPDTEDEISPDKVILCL
Report as a plain number; the unit µM is understood.

// returns AC50 for C=CCOc1cccc(N2CCC(=O)NC2=O)c1 with CRBN (Homo sapiens, UniProt Q96SW2); value = 3.65

// returns AC50 for Cc1ccc(C(=O)O)cc1N1CCC(=O)NC1=O with CRBN (Homo sapiens, UniProt Q96SW2); value = 2.85

// returns AC50 for Cc1cc(F)c(C(=O)O)cc1N1CCC(=O)NC1=O with CRBN (Homo sapiens, UniProt Q96SW2); value = 0.95

// returns AC50 for Cc1ccc(OCC(=O)O)cc1N1CCC(=O)NC1=O with CRBN (Homo sapiens, UniProt Q96SW2); value = 5.37

// returns AC50 for Cc1ccc(OCC=O)cc1N1CCC(=O)NC1=O with CRBN (Homo sapiens, UniProt Q96SW2); value = 2.51

Now examine the next entry.
// returns AC50 for Cc1ccc(S(=O)(=O)NCCCCCN)cc1N1CCC(=O)NC1=O with CRBN (Homo sapiens, UniProt Q96SW2); value = 14.9

* * *

biological target: UniProt:Q96SW2; assay: CRBN displacement assay Format 1 (fluorescence polarization, BodipyFL-lenalidomide probe Compound HH); format: binding; conditions: concentration at which 50% of reference probe Compound HH is displaced; 100 nM protein, 5 nM probe; Table 4; read-out: CRBN AC50 [μM] Format 1
parameter: AC50 (µM)
Report as a plain number; the unit µM is understood.

So, O=C1CCN(c2cc(C(=O)O)ccc2F)C(=O)N1 ? Its AC50 was 3.03

So, O=C1CCN(c2c(F)cc(C#CC3CCNCC3)cc2F)C(=O)N1 ? Its AC50 was 8.44

Now examine the next entry.
So, O=C(O)COc1ccc(N2CCC(=O)NC2=O)cc1 ? Its AC50 was 13

* * *

target: CRBN (Homo sapiens, UniProt Q96SW2); experiment: CRBN displacement assay Format 2a (fluorescence polarization, 1536-well, Envision reader); type: binding; conditions: greatest effect as % displacement of the reference probe at the highest concentration tested (50 μM); given where AC50 >50 μM; 45 min
parameter: CRBN Amax* (% at 50 μM) Format 2a (%)
Report as a plain number; the unit % is understood.

So, O=C1CCN(Cc2ncc(Br)cn2)C(=O)N1 [ILB-90] ? Its CRBN Amax* (% at 50 μM) Format 2a was 40

---
So, CC(O)c1ccc(N2CCC(=O)NC2=O)cn1 (stereo not drawn) [ILB-75] ? Its CRBN Amax* (% at 50 μM) Format 2a was 40

So, O=C1CCN(Cc2cccc(CCO)c2)C(=O)N1 [ILB-7] ? Its CRBN Amax* (% at 50 μM) Format 2a was 40

* * *

molecular target: CRBN (Homo sapiens, UniProt Q96SW2); test: CRBN displacement assay Format 2a (fluorescence polarization, 1536-well, Envision reader); assay type: binding; details: concentration at which 50% of reference probe Compound HH is displaced; 40 nM protein, 5 nM probe; read-out: CRBN AC50 [μM] Format 2a
parameter: AC50
Include the unit after the number when you answer.

So, Cc1ccc(OCC(=O)O)cc1N1CCC(=O)NC1=O ? Its AC50 was 2.01 µM

---
So, O=C1CCN(c2ccc(C(=O)O)cc2)C(=O)N1 ? Its AC50 was 5.1 µM

So, C=CCOc1cccc(N2CCC(=O)NC2=O)c1 ? Its AC50 was 1.91 µM

So, CCOC(=O)c1cnc(C)c(N2CCC(=O)NC2=O)c1 ? Its AC50 was 29.8 µM

So, O=C1CCN(c2cc(C(=O)O)ccc2F)C(=O)N1 ? Its AC50 was 0.74 µM

So, C=C(C)c1cncc(N2CCC(=O)NC2=O)c1 ? Its AC50 was 6.28 µM

So, Cc1ccc(OCC=O)cc1N1CCC(=O)NC1=O ? Its AC50 was 0.8 µM

So, Cc1ccc(C(=O)O)cc1N1CCC(=O)NC1=O ? Its AC50 was 0.68 µM

* * *

target: CRBN (Homo sapiens, UniProt Q96SW2); test: CRBN displacement assay Format 2a (fluorescence polarization, 1536-well, Envision reader); type: binding
Classify: 1 when AC50 is strictly less than 5 µM; -1 when AC50 is not.

These recorded examples may help you get a feel for the data.
Problem: Is AC50 strictly under 5 µM for the entry COc1ccc(C(=O)O)cc1CN1CCC(=O)NC1=O ?
Result: -1

Problem: Is AC50 strictly under 5 µM for the entry O=C1CCN(Cc2ncc(Br)cn2)C(=O)N1 ?
Result: -1

Problem: Is AC50 strictly under 5 µM for the entry O=C(O)CCn1cc(N2CCC(=O)NC2=O)cn1 ?
Result: -1

Problem: Is AC50 strictly under 5 µM for the entry Cn1cc(Br)c(CN2CCC(=O)NC2=O)n1 ?
Result: -1

Problem: Is AC50 strictly under 5 µM for the entry O=C1CCN(Cc2ccncc2Br)C(=O)N1 ?
Result: -1

Problem: Is AC50 strictly under 5 µM for the entry O=C1CCN(Cc2cc(C(F)(F)F)[nH]n2)C(=O)N1 ?
Result: -1

Problem: Is AC50 strictly under 5 µM for the entry CC(C)(C)OC(=O)NCC#Cc1cc(F)c(N2CCC(=O)NC2=O)c(F)c1 ?
Result: 1

Problem: Is AC50 strictly under 5 µM for the entry CC(O)c1ccc(N2CCC(=O)NC2=O)cn1 (centres unmarked) ?
Result: -1

---
Problem: Is AC50 strictly under 5 µM for the entry O=C1CCN(c2ccc(OCC(=O)N3CCC(OC4CCNCC4)CC3)cc2)C(=O)N1 ?
Result: 1

Problem: Is AC50 strictly under 5 µM for the entry O=C(O)Cn1cc(N2CCC(=O)NC2=O)cn1 ?
Result: -1

Problem: Is AC50 strictly under 5 µM for the entry Cc1cc(O)ccc1N1CCC(=O)NC1=O ?
Result: 1

Problem: Is AC50 strictly under 5 µM for the entry O=C1CCN(Cc2cc(C(=O)O)ccn2)C(=O)N1 ?
Result: -1

Problem: Is AC50 strictly under 5 µM for the entry O=C1CCN(Cc2cccc(CCO)c2)C(=O)N1 ?
Result: -1

Problem: Is AC50 strictly under 5 µM for the entry O=C1CCN(Cc2nc(C(=O)O)cs2)C(=O)N1 ?
Result: -1

Sourced from patent US20220387602A1
